Here we list compounds with their recorded MIC when tested on Staphylococcus aureus.
Answer in µg/mL, number only, no unit symbol.

CHEM SMILES: CCn1cc(C(=O)O)c(=O)c2cc(F)c(N3CCC(N4CCCC4)CC3)cc21
SYSTEM NAME: Staphylococcus aureus
UNIT ABBREVIATION: µg/mL
MIC: 3.1
//
CHEM SMILES: CCn1cc(C(=O)O)c(=O)c2cc(N)c(C)nc21
SYSTEM NAME: Staphylococcus aureus
UNIT ABBREVIATION: µg/mL
MIC: 50
//
CHEM SMILES: CCn1cc(C(=O)O)c(=O)c2cc(F)c(N3CCSC3)cc21
SYSTEM NAME: Staphylococcus aureus
UNIT ABBREVIATION: µg/mL
MIC: 0.2
//
CHEM SMILES: CCn1cc(C(=O)O)c(=O)c2cc(F)c(N3CCNCC3)c(F)c21
SYSTEM NAME: Staphylococcus aureus
UNIT ABBREVIATION: µg/mL
MIC: 3.1
//
CHEM SMILES: CCn1cc(C(=O)O)c(=O)c2cc(F)c(F)c(F)c21
SYSTEM NAME: Staphylococcus aureus
UNIT ABBREVIATION: µg/mL
MIC: 50

[ask] Please give the measured MIC for this compound: CCn1cc(C(=O)O)c(=O)c2cc(F)c(/C=N/O)nc21
[reply] 100

[ask] Input CCn1cc(C(=O)O)c(=O)c2cc(F)c(C)nc21
[reply] 25

[ask] Input CCn1cc(C(=O)O)c(=O)c2cc(F)c(C)cc21
[reply] 1.6

[ask] Input CCn1cc(C(=O)O)c(=O)c2cc(F)c(N3CCN(C(C)=N)CC3)nc21
[reply] 50

----------
Here we list molecules with their recorded MIC when tested on Streptococcus pneumoniae.
Answer in µg/mL, number only, no unit symbol.

Take a look at these entries with their results.
MOLECULE: CCOC(=O)N1CCN(c2nc3c(cc2F)c(=O)c(C(=O)O)cn3CC)CC1
SYSTEM NAME: Streptococcus pneumoniae
UNIT ABBREVIATION: µg/mL
ASSAY VALUE: 100

MOLECULE: CCn1cc(C(=O)O)c(=O)c2cc(F)c(/C=N/O)nc21
SYSTEM NAME: Streptococcus pneumoniae
UNIT ABBREVIATION: µg/mL
ASSAY VALUE: 100

MOLECULE: CCn1cc(C(=O)O)c(=O)c2cc(F)c(N3CCCC3)nc21
SYSTEM NAME: Streptococcus pneumoniae
UNIT ABBREVIATION: µg/mL
ASSAY VALUE: 3.1

Attention now shifts to the item below.
[ask] # get_value(readout= MIC, system= Streptococcus pneumoniae) for CCn1cc(C(=O)O)c(=O)c2cc(F)c(N3CCN(C)CC3)c(F)c21
[reply] 3.1

----------
biological target: DNA gyrase (Escherichia coli) (UniProt P0AES6+P0AES4)
OBSERVED PROPERTY: gyrase cleavage conc (µg/mL)
Answer in µg/mL, number only, no unit symbol.

Take a look at these entries with their results.
CHEM SMILES: CCn1cc(C(=O)O)c(=O)c2cc(F)c(Cl)cc21
UNIT ABBREVIATION: µg/mL
gyrase cleavage conc: 38
//
CHEM SMILES: CCn1cc(C(=O)O)c(=O)cc1/C=C/c1ccsc1
UNIT ABBREVIATION: µg/mL
gyrase cleavage conc: 100
//
CHEM SMILES: CCn1cc(C(=O)O)c(=O)c2cc(F)c(C)nc21
UNIT ABBREVIATION: µg/mL
gyrase cleavage conc: 25
//
CHEM SMILES: CCn1cc(C(=O)O)c(=O)c2c(N)nc(N3CCNCC3)nc21
UNIT ABBREVIATION: µg/mL
gyrase cleavage conc: 100

Attention now shifts to the item below.
[ask] Please give the measured gyrase cleavage conc for this compound: CCn1cc(C(=O)O)c(=O)c2cc(F)c(N3CCNCC3)c(F)c21
[reply] 1

----------
tested on: Escherichia coli; assay: Antibacterial activity against Escherichia coli (H560)
OBSERVED PROPERTY: log10 of MIC (log10 of the value in µg/mL)
Friendly reminder: values = log10 of MIC, unit µg/mL.

[ask] Please give the measured log10 of MIC for this compound: CCn1cc(C(=O)O)c(=O)c2cc(F)c(N3CCSC3)nc21
[reply] -0.40

[ask] Input CCn1cc(C(=O)O)c(=O)c2ccc(N3CCNCC3)cc21
[reply] 0.80

[ask] Input CCn1cc(C(=O)O)c(=O)c2cc(F)c(-n3cccc3)cc21 [IRLOXACIN]
[reply] 0.20

[ask] Input CCOC(=O)N1CCN(c2nc3c(cc2F)c(=O)c(C(=O)O)cn3CC)CC1
[reply] 1.70

[ask] Input CCn1cc(C(=O)O)c(=O)c2cc(N)c(C)nc21
[reply] 2.00

[ask] Input CCn1cc(C(=O)O)c(=O)c2cc(F)c(N3CCC(C(N)=O)CC3)cc21
[reply] 1.40

[ask] Input CCn1cc(C(=O)O)c(=O)c2cc(F)c(N3CCN(C(C)=N)CC3)cc21
[reply] -0.70

[ask] Input CCn1cc(C(=O)O)c(=O)c2cc(F)c(F)c(F)c21
[reply] 0.80

[ask] Input CCn1cc(C(=O)O)c(=O)c2cc(F)c(N3CCCC3)cc21
[reply] 0.20

[ask] Input CCn1cc(C(=O)O)c(=O)c2cc(F)c(NCCN)nc21
[reply] 1.40

[ask] Input CCn1cc(C(=O)O)c(=O)c2cc(F)c(N3CCN(C)CC3)c(F)c21
[reply] -1.00

----------
molecular target: DNA gyrase (Escherichia coli) (UniProt P0AES6+P0AES4)
OBSERVED PROPERTY: gyrase cleavage conc (µg/mL)
Answer in µg/mL, number only, no unit symbol.

[ask] Please give the measured gyrase cleavage conc for this compound: CCn1cc(C(=O)O)c(=O)c2cnc(N3CCNCC3)nc21
[reply] 50

[ask] Input CCn1nc(C(=O)O)c(=O)c2cc3c(cc21)OCO3
[reply] 43

[ask] Input CCn1cc(C(=O)O)c(=O)c2cc(F)c(N3CCSC3)cc21
[reply] 5

[ask] Input CCn1cc(C(=O)O)c(=O)c2cc3c(cc21)OCO3
[reply] 10

[ask] Input CCn1cc(C(=O)O)c(=O)c2cc(F)c(N3CCN(C(C)=N)CC3)cc21
[reply] 2.5

[ask] Input CCn1cc(C(=O)O)c(=O)c2cc(F)ccc21
[reply] 50

----------
tested on: Escherichia coli; test: Antibacterial activity against Escherichia coli (vogel)
OBSERVED PROPERTY: MIC (µg/mL)
Answer in µg/mL, number only, no unit symbol.

CHEM SMILES: CCn1cc(C(=O)O)c(=O)c2cc(F)c(N3CCCC3)nc21
MIC [µg/mL]: 3.1
//
CHEM SMILES: CCn1cc(C(=O)O)c(=O)c2c(N)nc(N3CCN(C)CC3)nc21
MIC [µg/mL]: 1.6
//
CHEM SMILES: CCn1cc(C(=O)O)c(=O)c2cc(F)c(N3CCN(CC#N)CC3)cc21
MIC [µg/mL]: 0.4
//
CHEM SMILES: CCn1cc(C(=O)O)c(=O)c2ccc(/C=N/N3CCN(C)CC3)nc21
MIC [µg/mL]: 12.5
//
CHEM SMILES: CCn1cc(C(=O)O)c(=O)c2cc(F)c(N3CCSC3)nc21
MIC [µg/mL]: 0.1

[ask] Please give the measured MIC for this molecule: CCn1cc(C(=O)O)c(=O)c2cc(F)c(C)nc21
[reply] 3.1

[ask] Input CCn1cc(C(=O)O)c(=O)c2cc(F)c(N3CCN(C)CC3)c(F)c21
[reply] 0.2

[ask] Input CCn1cc(C(=O)O)c(=O)cc1/C=C/c1ccsc1
[reply] 25

----------
system: Streptococcus pneumoniae; assay: Antibacterial activity against Streptococcus pneumoniae (SV-1)
OBSERVED PROPERTY: MIC (µg/mL)
Answer in µg/mL, number only, no unit symbol.

Take a look at these entries with their results.
CHEM SMILES: CCn1cc(C(=O)O)c(=O)c2cc(F)c(N3CCN(CCCN(C)C)CC3)cc21
MIC / µg/mL: 25
//
CHEM SMILES: CNn1cc(C(=O)O)c(=O)c2cc(F)c(N3CCN(C)CC3)cc21
MIC / µg/mL: 12.5
//
CHEM SMILES: CCn1cc(C(=O)O)c(=O)c2cc(F)c(N3CCC(N4CCN(C)CC4)CC3)cc21
MIC / µg/mL: 6.3

[ask] Please give the measured MIC for this compound: CCn1cc(C(=O)O)c(=O)c2cc(F)c(N3CCSC3)nc21
[reply] 1.6

[ask] Input CCn1cc(C(=O)O)c(=O)c2cc(F)c(N3CCN(C(C)=N)CC3)nc21
[reply] 50

[ask] Input CCn1cc(C(=O)O)c(=O)c2cc(F)c(N3CCC(N4CCCC4)CC3)cc21
[reply] 12.5

[ask] Input CCn1cc(C(=O)O)c(=O)c2cc(F)c(N3CCN(CC#N)CC3)cc21
[reply] 6.3

[ask] Input CCn1cc(C(=O)O)c(=O)c2ccc(/C=N/N3CCN(C)CC3)nc21
[reply] 100
